tested.system: Dual specificity tyrosine-phosphorylation-regulated kinase 2 (Homo sapiens)
experimental.conditions: at 1 µM
Items are presented alongside their recorded inhibition.
measured.metric: inhibition (%)

[[record]]
structure_smiles = "CCOc1nccc2c1nc(-c1nonc1N)n2CC"
measured_metric = "inhibition"
experimental_value = 2.84

[[record]]
structure_smiles = "NS(=O)(=O)c1ccc(-c2cc3ccncc3cc2OCc2ccccc2)cc1"
measured_metric = "inhibition"
experimental_value = 3.11

[[record]]
structure_smiles = "COC(=O)c1ccc2c(c1)C(=Cc1cc(Br)c(O)c(Br)c1)C(=O)N2"
measured_metric = "inhibition"
experimental_value = 18.8

[[record]]
structure_smiles = "Cc1cc(-c2ccccn2)cc(C)c1/C=C/c1cncc(-c2nn[nH]n2)c1"
measured_metric = "inhibition"
experimental_value = 4.85

[[record]]
structure_smiles = "Cc1ccc2c(-c3ccnc(Nc4cccc(C(F)(F)F)c4)n3)c(-c3ccccc3)nn2n1"
measured_metric = "inhibition"
experimental_value = 5.83

[[record]]
structure_smiles = "Cc1ccc2c(-c3ccnc(Nc4ccc5c(c4)OCCO5)n3)c(-c3ccc(C(F)(F)F)cc3)nn2n1"
measured_metric = "inhibition"
experimental_value = -1.15

[[record]]
structure_smiles = "c1ccc(Nc2ncc(-c3ccccc3)o2)cc1"
measured_metric = "inhibition"
experimental_value = 5.66

[[record]]
structure_smiles = "CN(C)CCCn1c(-c2nonc2N)nc2cnccc21"
measured_metric = "inhibition"
experimental_value = 3.79

[[record]]
structure_smiles = "NS(=O)(=O)c1ccc(N/N=C2\\C(=O)Nc3ccc(Cl)cc32)cc1"
measured_metric = "inhibition"
experimental_value = 3.44

[[record]]
structure_smiles = "CC(C)c1ccc2c(c1)NC(=O)/C2=N/Nc1ccc(S(N)(=O)=O)cc1"
measured_metric = "inhibition"
experimental_value = -0.44

[[record]]
structure_smiles = "FC(F)(F)c1ccc(-c2nn3ncccc3c2-c2ccnc(Nc3ccc4c(c3)OCCO4)n2)cc1"
measured_metric = "inhibition"
experimental_value = 0.53


---

tested.system: Dual specificity tyrosine-phosphorylation-regulated kinase 2 (Homo sapiens);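 note: reported values are means of DYRK2 inhibition from screening the GSK PKIS collection at 1 µM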
experimental.conditions: at 1 µM
Returns TRUE if the recorded inhibition is greater than or equal to 4%, and FALSE otherwise.

[[record]]
structure_smiles = "Nc1nccc(C#Cc2cncnc2Nc2ccc(OCc3cccc(F)c3)c(Cl)c2)n1"
label_class = "TRUE"

[[record]]
structure_smiles = "CN(C)c1cc2c(Nc3ccc4c(cnn4Cc4ccccc4)c3)ncnc2cn1"
label_class = "FALSE"

[[record]]
structure_smiles = "NS(=O)(=O)c1cccc(-c2cc3ccncc3cc2OCc2ccccc2)c1"
label_class = "FALSE"

[[record]]
structure_smiles = "O=C(Nc1ccc(Oc2ccc3[nH]c(NC(=O)c4ccco4)nc3c2)cc1)Nc1cc(C(F)(F)F)ccc1F"
label_class = "FALSE"


---

tested.system: Sphingosine kinase 1 (Homo sapiens) (UniProt Q9NYA1);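 note: mean SPHK1 inhibition value reported from the GSK PKIS kinase panel screen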
Sequence (Q9NYA1 whole entry): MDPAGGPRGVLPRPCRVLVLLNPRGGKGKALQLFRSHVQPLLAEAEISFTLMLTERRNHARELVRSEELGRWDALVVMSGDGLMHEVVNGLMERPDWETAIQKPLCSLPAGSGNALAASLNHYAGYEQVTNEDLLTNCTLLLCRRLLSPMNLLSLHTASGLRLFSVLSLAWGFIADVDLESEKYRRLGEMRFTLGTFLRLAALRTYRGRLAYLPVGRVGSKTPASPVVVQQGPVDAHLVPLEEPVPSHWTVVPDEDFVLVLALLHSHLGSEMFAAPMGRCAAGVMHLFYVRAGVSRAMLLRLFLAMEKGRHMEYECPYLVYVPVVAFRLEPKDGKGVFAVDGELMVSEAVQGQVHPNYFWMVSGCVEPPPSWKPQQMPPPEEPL
experimental.conditions: at 1 µM
Items are presented alongside their recorded inhibition.
measured.metric: inhibition (%)

[[record]]
compound = "COC(=O)Nc1nc2cc(Oc3ccc(NC(=O)Nc4cccc(Br)c4)cc3)ccc2[nH]1"
measured_metric = "inhibition"
experimental_value = -3.97

[[record]]
compound = "COc1cc(Nc2nccc(-c3cnn4ncccc34)n2)cc(OC)c1"
measured_metric = "inhibition"
experimental_value = 0.57

[[record]]
compound = "COc1cc2ncnc(Nc3ccc4c(cnn4Cc4ccccc4)c3)c2cc1OC"
measured_metric = "inhibition"
experimental_value = 2.19

[[record]]
compound = "NS(=O)(=O)c1ccc(N/N=C2\\C(=O)Nc3ccc(Cl)cc32)cc1"
measured_metric = "inhibition"
experimental_value = -4.27

[[record]]
compound = "COc1cccc(-n2ncc3c(N/N=C/c4ccc(C)cc4)ncnc32)c1"
measured_metric = "inhibition"
experimental_value = 1.5

[[record]]
compound = "Oc1cccc(-c2nc(-c3ccccc3)[nH]c2-c2ccncc2)c1"
measured_metric = "inhibition"
experimental_value = -1.58

[[record]]
compound = "Nc1ccc(C#Cc2cncnc2Nc2ccc(OCc3cccc(F)c3)c(Cl)c2)cc1"
measured_metric = "inhibition"
experimental_value = -2.59

[[record]]
compound = "CS(=O)(=O)CCNCc1nc(-c2ccc3ncnc(Nc4ccc(OCc5cccc(C(F)(F)F)c5)cc4)c3c2)cs1"
measured_metric = "inhibition"
experimental_value = 1.3

[[record]]
compound = "FC(F)(F)c1ccc(-c2nn3ncccc3c2-c2ccnc(Nc3ccc4c(c3)OCCO4)n2)cc1"
measured_metric = "inhibition"
experimental_value = 0.29

[[record]]
compound = "Cc1cc(-c2ccccn2)cc(C)c1/C=C/c1cncc(-c2nn[nH]n2)c1"
measured_metric = "inhibition"
experimental_value = 0.83

[[record]]
compound = "CN(C)C(=O)O[C@H]1CN[C@H](C#Cc2cc3ncnc(Nc4ccc(OCc5cccc(F)c5)c(Cl)c4)c3s2)C1"
measured_metric = "inhibition"
experimental_value = -2.15

[[record]]
compound = "COC(=O)c1ccc2c(c1)C(=Cc1cc(Br)c(O)c(Br)c1)C(=O)N2"
measured_metric = "inhibition"
experimental_value = -3.43

[[record]]
compound = "Cc1cc(O)cc(C)c1/C=C/c1cncc(C(=O)N(C)C)c1"
measured_metric = "inhibition"
experimental_value = -0.49

[[record]]
compound = "Cc1ccc2c(c1)/C(=N/Nc1ccc(S(N)(=O)=O)cc1)C(=O)N2"
measured_metric = "inhibition"
experimental_value = 0.07

[[record]]
compound = "O=C1Nc2ccccc2/C1=C/Nc1ccc2[nH]c(=O)[nH]c2c1"
measured_metric = "inhibition"
experimental_value = -0.67

[[record]]
compound = "[O-][S+]1CCN(Cc2ccc(-c3ccc4ncnc(Nc5ccc(OCc6ccccc6)c(Cl)c5)c4c3)o2)CC1"
measured_metric = "inhibition"
experimental_value = 0.98

[[record]]
compound = "C[C@@H](Oc1cc(-n2cnc3ccc(OC[C@@H](O)CO)cc32)sc1C(N)=O)c1ccccc1Cl"
measured_metric = "inhibition"
experimental_value = 0.3

[[record]]
compound = "CCCN1CCCC(c2ccc(Nc3nc(Nc4cc(F)ccc4C(N)=O)c4cc[nH]c4n3)c(OC)c2)C1 (stereo not given)"
measured_metric = "inhibition"
experimental_value = 3.56

[[record]]
compound = "Nc1nccc(-c2c(-c3ccc(F)cc3)nn3cc(C(F)(F)F)ccc23)n1"
measured_metric = "inhibition"
experimental_value = 11.1

[[record]]
compound = "Cc1ccc(NC(=O)CC2CC2)cc1-c1ccc(C(=O)NCC2CC2)cc1"
measured_metric = "inhibition"
experimental_value = -1.09


---

tested.system: Calcium/calmodulin-dependent protein kinase type 1D (Homo sapiens) (UniProt Q8IU85);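 note: reported figure is the mean inhibition of CAMK1D, from the GSK PKIS screening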
Sequence (Q8IU85 whole entry, looked up): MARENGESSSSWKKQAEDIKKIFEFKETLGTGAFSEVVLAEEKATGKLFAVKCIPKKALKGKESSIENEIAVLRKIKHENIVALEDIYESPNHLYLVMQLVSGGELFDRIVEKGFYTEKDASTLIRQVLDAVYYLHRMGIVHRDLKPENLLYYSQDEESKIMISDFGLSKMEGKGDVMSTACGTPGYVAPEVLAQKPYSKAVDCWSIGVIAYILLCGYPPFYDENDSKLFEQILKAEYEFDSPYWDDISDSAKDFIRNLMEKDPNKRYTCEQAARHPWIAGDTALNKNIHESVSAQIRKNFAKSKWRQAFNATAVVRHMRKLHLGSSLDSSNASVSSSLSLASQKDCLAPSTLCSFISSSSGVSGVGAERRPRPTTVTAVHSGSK
experimental.conditions: at 0.1 µM
Items are presented alongside their recorded inhibition.
measured.metric: inhibition (%)

[[record]]
structure_smiles = "[O-][S+]1CCN(Cc2ccc(-c3ccc4ncnc(Nc5ccc(OCc6ccccc6)c(Cl)c5)c4c3)o2)CC1"
experimental_value = -0.14

[[record]]
structure_smiles = "N#Cc1cccc(Nc2nccc(-c3cnn4ncccc34)n2)c1"
experimental_value = -0.83

[[record]]
structure_smiles = "COc1ccc2ncnc(Nc3ccc(OCc4ccccc4)cc3)c2c1"
experimental_value = 0.63

[[record]]
structure_smiles = "NC(=O)c1cccc(Nc2nccc(Nc3cccc(F)c3)n2)c1"
experimental_value = 0.4

[[record]]
structure_smiles = "COc1cccc(-n2ncc3c(N/N=C/c4ccc(C)cc4)ncnc32)c1"
experimental_value = 0.52

[[record]]
structure_smiles = "O=C1Nc2ccccc2/C1=C/Nc1ccc2[nH]c(=O)[nH]c2c1"
experimental_value = -1.27

[[record]]
structure_smiles = "CN(C)c1cc2c(Nc3ccc4c(cnn4Cc4ccccc4)c3)ncnc2cn1"
experimental_value = -0.24

[[record]]
structure_smiles = "Oc1cccc(-c2nc(-c3ccccc3)[nH]c2-c2ccncc2)c1"
experimental_value = 0.26

[[record]]
structure_smiles = "Cc1nc(-c2ccccc2)n2nc(NCCCN3CCOCC3)ncc12"
experimental_value = 1.67

[[record]]
structure_smiles = "Cc1ccc2c(-c3ccnc(Nc4ccc5c(c4)OCCO5)n3)c(-c3ccc(C(F)(F)F)cc3)nn2n1"
experimental_value = 0.52


---

tested.system: RAF proto-oncogene serine/threonine-protein kinase (Homo sapiens) (UniProt P04049);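 note: values are the mean percent inhibition of CRAF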
Sequence (P04049 whole entry): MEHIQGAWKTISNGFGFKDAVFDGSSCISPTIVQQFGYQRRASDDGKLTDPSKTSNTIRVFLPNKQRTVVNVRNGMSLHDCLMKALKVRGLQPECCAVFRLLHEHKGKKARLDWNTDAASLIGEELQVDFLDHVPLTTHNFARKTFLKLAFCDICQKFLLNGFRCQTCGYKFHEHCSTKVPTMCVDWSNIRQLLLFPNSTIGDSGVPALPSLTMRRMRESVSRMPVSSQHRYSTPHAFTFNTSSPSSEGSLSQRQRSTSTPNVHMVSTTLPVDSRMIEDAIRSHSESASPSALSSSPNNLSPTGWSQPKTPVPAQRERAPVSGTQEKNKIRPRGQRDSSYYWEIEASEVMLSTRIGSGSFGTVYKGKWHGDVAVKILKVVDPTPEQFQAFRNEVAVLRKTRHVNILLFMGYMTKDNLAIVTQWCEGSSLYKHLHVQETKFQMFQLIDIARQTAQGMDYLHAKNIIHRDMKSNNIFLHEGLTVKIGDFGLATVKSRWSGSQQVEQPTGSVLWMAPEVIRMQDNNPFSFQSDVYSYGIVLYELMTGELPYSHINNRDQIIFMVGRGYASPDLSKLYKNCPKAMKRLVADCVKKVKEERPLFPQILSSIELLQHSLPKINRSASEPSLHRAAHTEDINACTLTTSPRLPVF
experimental.conditions: at 1 µM
measured.metric: inhibition (%)

[[record]]
structure_smiles = "ON=C1CCc2cc(-c3nc(C4CCNCC4)[nH]c3-c3ccncc3)ccc21"
measured_metric = "inhibition"
quantity_unit = "%"
experimental_value = 10.2

[[record]]
structure_smiles = "Nc1ccc(C#Cc2cncnc2Nc2ccc(OCc3cccc(F)c3)c(Cl)c2)cc1"
measured_metric = "inhibition"
quantity_unit = "%"
experimental_value = -1.01

[[record]]
structure_smiles = "COc1cc2ncn(-c3cc(OCc4ccccc4S(C)(=O)=O)c(C#N)s3)c2cc1OC"
measured_metric = "inhibition"
quantity_unit = "%"
experimental_value = 2.83

[[record]]
structure_smiles = "Cc1nc(-c2ccccc2)n2nc(NCCCN3CCOCC3)ncc12"
measured_metric = "inhibition"
quantity_unit = "%"
experimental_value = 3.81

[[record]]
structure_smiles = "CC(C)c1ccc2c(c1)NC(=O)/C2=N/Nc1ccc(S(N)(=O)=O)cc1"
measured_metric = "inhibition"
quantity_unit = "%"
experimental_value = -0.41

[[record]]
structure_smiles = "COc1cc(/C=N/Nc2ncnc3c2cnn3C(C)C)ccc1O"
measured_metric = "inhibition"
quantity_unit = "%"
experimental_value = 1.93

[[record]]
structure_smiles = "NS(=O)(=O)c1ccc(NC=C2C(=O)Nc3ccc4ncsc4c32)cc1"
measured_metric = "inhibition"
quantity_unit = "%"
experimental_value = -1.97

[[record]]
structure_smiles = "OCc1ccc(-c2nc(-c3ccccn3)c(-c3ccc4c(c3)OCO4)[nH]2)cc1"
measured_metric = "inhibition"
quantity_unit = "%"
experimental_value = -7.97

[[record]]
structure_smiles = "Cc1ccc2c(-c3ccnc(Nc4ccc5c(c4)OCCO5)n3)c(-c3ccc(C(F)(F)F)cc3)nn2n1"
measured_metric = "inhibition"
quantity_unit = "%"
experimental_value = 1.48

[[record]]
structure_smiles = "COc1cc2ncnc(Nc3ccc(C)c(O)c3)c2cc1OC"
measured_metric = "inhibition"
quantity_unit = "%"
experimental_value = -1.36

[[record]]
structure_smiles = "COc1cc2ncnc(Nc3ccc4c(cnn4Cc4ccccc4)c3)c2cc1OC"
measured_metric = "inhibition"
quantity_unit = "%"
experimental_value = -1.93

[[record]]
structure_smiles = "CCn1c(-c2nonc2N)nc2ccc(F)cc21"
measured_metric = "inhibition"
quantity_unit = "%"
experimental_value = 0.22

[[record]]
structure_smiles = "CCS(=O)(=O)c1ccc(OC)c(Nc2ncc(-c3cccc(OC)c3)o2)c1"
measured_metric = "inhibition"
quantity_unit = "%"
experimental_value = -3.45

[[record]]
structure_smiles = "O=C(Nc1ccc(Oc2ccc3[nH]c(NC(=O)c4ccco4)nc3c2)cc1)Nc1cc(C(F)(F)F)ccc1F"
measured_metric = "inhibition"
quantity_unit = "%"
experimental_value = 39.9

[[record]]
structure_smiles = "CN(C)CCCn1c(-c2nonc2N)nc2cnccc21"
measured_metric = "inhibition"
quantity_unit = "%"
experimental_value = 1.81

[[record]]
structure_smiles = "CCOc1nccc2c1nc(-c1nonc1N)n2CC"
measured_metric = "inhibition"
quantity_unit = "%"
experimental_value = 1.42

[[record]]
structure_smiles = "O=C1Nc2ccc(-c3cccnc3)cc2C1=Cc1cc(Br)c(O)c(Br)c1"
measured_metric = "inhibition"
quantity_unit = "%"
experimental_value = 21.8

[[record]]
structure_smiles = "COc1cc(Nc2nccc(-c3cnn4ncccc34)n2)cc(OC)c1"
measured_metric = "inhibition"
quantity_unit = "%"
experimental_value = 10.1

[[record]]
structure_smiles = "Nc1nccc(C#Cc2cncnc2Nc2ccc(OCc3cccc(F)c3)c(Cl)c2)n1"
measured_metric = "inhibition"
quantity_unit = "%"
experimental_value = -0.28

[[record]]
structure_smiles = "Oc1cccc(-c2nc(-c3ccccc3)[nH]c2-c2ccncc2)c1"
measured_metric = "inhibition"
quantity_unit = "%"
experimental_value = 12.2

[[record]]
structure_smiles = "COC(=O)c1ccc2c(c1)C(=Cc1cc(Br)c(O)c(Br)c1)C(=O)N2"
measured_metric = "inhibition"
quantity_unit = "%"
experimental_value = 42

[[record]]
structure_smiles = "Cc1ccc(Nc2ccnc(Nc3cccc(C(N)=O)c3)n2)cc1O"
measured_metric = "inhibition"
quantity_unit = "%"
experimental_value = 4.38


The reported numbers originate from ChEMBL document CHEMBL1961873.
